Field: pIC50. Provide a value for each of the molecules that follow.
Target: Histone-lysine N-methyltransferase EZH2/Polycomb protein EED/Polycomb protein SUZ12 (Human, UniProt O75530+Q15022+Q15910)
Sequence (Q15910 whole entry): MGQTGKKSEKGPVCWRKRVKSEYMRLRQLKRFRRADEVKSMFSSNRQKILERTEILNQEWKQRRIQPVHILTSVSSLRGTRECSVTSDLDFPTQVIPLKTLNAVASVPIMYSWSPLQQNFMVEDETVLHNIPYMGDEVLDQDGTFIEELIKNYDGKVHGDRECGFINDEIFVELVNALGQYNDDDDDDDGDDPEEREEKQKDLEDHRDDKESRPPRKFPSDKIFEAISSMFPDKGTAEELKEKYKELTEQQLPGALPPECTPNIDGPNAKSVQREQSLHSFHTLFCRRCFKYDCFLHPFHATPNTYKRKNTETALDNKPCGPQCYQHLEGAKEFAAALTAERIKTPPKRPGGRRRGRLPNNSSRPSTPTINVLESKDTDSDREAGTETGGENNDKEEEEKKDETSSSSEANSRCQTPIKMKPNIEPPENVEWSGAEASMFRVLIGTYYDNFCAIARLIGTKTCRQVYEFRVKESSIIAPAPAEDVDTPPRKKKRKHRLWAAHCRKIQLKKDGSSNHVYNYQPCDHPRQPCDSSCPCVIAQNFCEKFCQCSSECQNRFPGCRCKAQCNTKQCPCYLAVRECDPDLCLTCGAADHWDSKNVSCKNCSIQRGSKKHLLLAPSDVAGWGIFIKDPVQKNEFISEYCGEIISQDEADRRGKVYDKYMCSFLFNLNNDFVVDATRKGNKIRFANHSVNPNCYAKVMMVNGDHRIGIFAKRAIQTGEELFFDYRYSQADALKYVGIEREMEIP
Sequence (O75530 whole entry): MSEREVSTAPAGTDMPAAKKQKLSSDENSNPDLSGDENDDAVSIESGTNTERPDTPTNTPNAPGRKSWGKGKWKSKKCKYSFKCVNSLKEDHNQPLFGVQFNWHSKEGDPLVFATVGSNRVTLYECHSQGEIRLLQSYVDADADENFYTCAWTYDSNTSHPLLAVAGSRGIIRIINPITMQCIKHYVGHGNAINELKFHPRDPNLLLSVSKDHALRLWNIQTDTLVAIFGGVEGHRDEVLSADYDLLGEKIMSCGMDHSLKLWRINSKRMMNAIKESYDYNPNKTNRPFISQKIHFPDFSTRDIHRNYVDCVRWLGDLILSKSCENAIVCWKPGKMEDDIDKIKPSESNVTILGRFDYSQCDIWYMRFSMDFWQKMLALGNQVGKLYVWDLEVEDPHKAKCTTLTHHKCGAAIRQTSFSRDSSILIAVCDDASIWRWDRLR
Sequence (Q15022 whole entry): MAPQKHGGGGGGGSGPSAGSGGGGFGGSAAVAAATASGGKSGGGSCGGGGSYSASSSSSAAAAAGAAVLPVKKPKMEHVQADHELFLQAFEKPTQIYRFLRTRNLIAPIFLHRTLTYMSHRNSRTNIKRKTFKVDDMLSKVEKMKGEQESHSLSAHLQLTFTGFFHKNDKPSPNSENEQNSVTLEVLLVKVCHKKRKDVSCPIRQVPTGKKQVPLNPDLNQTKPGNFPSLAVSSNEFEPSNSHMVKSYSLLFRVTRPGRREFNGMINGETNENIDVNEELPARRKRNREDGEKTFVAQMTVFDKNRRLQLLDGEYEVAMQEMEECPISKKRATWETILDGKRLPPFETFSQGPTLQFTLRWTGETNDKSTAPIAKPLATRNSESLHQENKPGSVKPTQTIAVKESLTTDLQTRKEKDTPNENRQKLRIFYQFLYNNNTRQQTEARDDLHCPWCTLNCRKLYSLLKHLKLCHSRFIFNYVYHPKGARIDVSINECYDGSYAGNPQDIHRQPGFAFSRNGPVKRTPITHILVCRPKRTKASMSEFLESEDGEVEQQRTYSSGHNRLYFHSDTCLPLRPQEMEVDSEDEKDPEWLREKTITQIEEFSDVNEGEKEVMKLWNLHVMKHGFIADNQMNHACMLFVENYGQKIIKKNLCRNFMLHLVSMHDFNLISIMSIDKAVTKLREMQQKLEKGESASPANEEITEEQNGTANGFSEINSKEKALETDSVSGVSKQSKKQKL
Assay: EZH2 LC-MS Assay
Give bare numbers, as −log10 of the molar value.

molecule	property.label	reported.measurement
Clc1nccc2ccc(NC3CCC(CNc4ncc(COC5COC5)cn4)CC3)nc12 (configuration not stated)	pIC50	7.57

Now look at this entry.
Sample COCCOC(=O)Nc1cnc(NCC2CCC(Nc3ccc4ccnc(Cl)c4n3)CC2)nc1 (configuration not stated) — what was its pIC50?
7.82

---

Target: Histone-lysine N-methyltransferase EZH2/Polycomb protein EED/Polycomb protein SUZ12 (Human, UniProt O75530+Q15022+Q15910)
Test: ELISA Assay
property.label: pIC50
One number for each entry, as −log10 of the molar value.

I am curious: what pIC50 value has been reported for COCCOC(=O)Nc1cnc(NCC2CCC(Nc3ccc4ccnc(Cl)c4n3)CC2)nc1 (stereo unspecified) ?
7.57
